Reference for the values: ChEMBL document CHEMBL3244019

assay-protocol: Half life in rabbit liver microsomes assessed as compound auto-oxidation at 37 uM
Assay type: ADME, Oryctolagus cuniculus
metric: half-life at 37 µM (h)
// note: answer is a bare numeric in h

Record Cc1cc(O)c(CC(C)N)cc1O (stereo unspecified) , field half-life at 37 µM: 1.67

====

assay-protocol: Half life of the compound assessed as compound auto-oxidation in 0.1 M buffer at 37 uM at pH 7.4
Assay type: physicochemical
metric: half-life at 37 µM (min)
// note: answer is a bare numeric in min

Record Cc1cc(O)c(CC(C)N)cc1O (stereo unspecified) , field half-life at 37 µM: 10

====

assay-protocol: Half life in rabbit liver homogenates with 13 ug of protein per ml assessed as compound auto-oxidation at 37 uM
Format: ADME, tissue-based, Oryctolagus cuniculus
stated-conditions: liver homogenate
metric: half-life at 37 µM (min)
// note: answer is a bare numeric in min

Record Cc1cc(O)c(CC(C)N)cc1O (stereo unspecified) , field half-life at 37 µM: 70

====

assay-protocol: Half life of the compound in 0.1 M metal-free buffer assessed as compound auto-oxidation at 37 uM at pH 7.4
Type: physicochemical
metric: half-life at 37 µM (min)
// note: answer is a bare numeric in min

Record Cc1cc(O)c(CC(C)N)cc1O (stereo unspecified) , field half-life at 37 µM: 180
